# PROCEDURE_TEXT: Serum fatty acid form concentrations (complex lipidomics) in dolphins fed modified fish diet
# Type: in vivo
# CONDITION_DETAILS: bottlenose dolphin (Tursiops truncatus), in vivo; case dolphins fed modified diet (n = 20), Month 1; read-out: Serum concentration, FFA (free fatty acid) form
PARAMETER_MEASURED: concentration at 1 month (µM)
Answers are plain numbers, in µM.

query: For CCCCCCCCCCCCCCCCCCCC(=O)O , write its concentration at 1 month.
result: 4.4

----------
# PROCEDURE_TEXT: Serum fatty acid form concentrations (complex lipidomics) in dolphins fed modified fish diet
# Type: in vivo
# CONDITION_DETAILS: bottlenose dolphin (Tursiops truncatus), in vivo; case dolphins fed modified diet (n = 20), Month 3; read-out: Serum concentration, FFA (free fatty acid) form
PARAMETER_MEASURED: concentration at 3 month (µM)
Answers are plain numbers, in µM.

query: For CCCCCCCCCCCCCCCCCCCC(=O)O , write its concentration at 3 month.
result: 5
